Cited source: patent US9745304B2

# study-system: human full-lengt MKNK1 (GST fusion, T344D) (Homo sapiens (Human), UniProt Q9BUB5, T344D)
# Sequence (Q9BUB5 other isoform, or with tags, fused parts or gaps T344D): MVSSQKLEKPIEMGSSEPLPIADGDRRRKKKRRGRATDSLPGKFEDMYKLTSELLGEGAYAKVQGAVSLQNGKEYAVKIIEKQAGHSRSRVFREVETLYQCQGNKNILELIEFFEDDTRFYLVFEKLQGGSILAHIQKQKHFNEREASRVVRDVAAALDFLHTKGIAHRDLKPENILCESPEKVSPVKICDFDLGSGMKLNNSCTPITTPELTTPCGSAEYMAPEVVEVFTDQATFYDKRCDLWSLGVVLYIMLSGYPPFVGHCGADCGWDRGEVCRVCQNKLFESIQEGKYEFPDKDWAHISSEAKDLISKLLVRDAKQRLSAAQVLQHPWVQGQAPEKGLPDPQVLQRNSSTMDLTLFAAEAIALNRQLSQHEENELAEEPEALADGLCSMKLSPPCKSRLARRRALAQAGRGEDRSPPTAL
# assay-text: MKNK1 kinase assay (TR-FRET, 10 μM ATP)
# run-conditions: 15 min preincubation
pIC50: −log10 of the molar value.
Answer class 0 if pIC50 is under 8, and class 1 if it is 8 or more.

O=C(CCc1cccnc1)Nc1ccc2ncc(-c3cc4ccccc4o3)n2n1 [Example 9] = class 1
N#CC1(C(=O)Nc2ccc3ncc(-c4cc5ccccc5o4)n3n2)CC1 [Example 24] = class 0
O=C(Nc1ccc2ncc(-c3cc4ccccc4o3)n2n1)c1cc(=O)[nH]c(=O)[nH]1 [Example 10] = class 0

Can C[C@@H](O)C(=O)Nc1ccc2ncc(-c3cc4ccccc4o3)n2n1 [Example 13] be said to have pIC50 at or above 8?
class 1

---

// values below are reported pIC50
# study-system: human full-length MKNK1 (GST fusion, T344D) (Homo sapiens (Human), UniProt Q9BUB5, T344D)
# assay-text: MKNK1 kinase high ATP assay (TR-FRET, 2 mM ATP)
# run-conditions: 15 min preincubation
API: returns pIC50 as number; meaning -log10 of concentration in mol/L.

# annotated cases, reported pIC50 shown
O=C(Nc1ccc2ncc(-c3cc4ccccc4o3)n2n1)c1cc(=O)[nH]c(=O)[nH]1 = 7.44
COc1nccc2oc(-c3cnc4ccc(NC(=O)[C@@H](C)O)nn34)cc12 = 8.15
O=C(Nc1ccc2ncc(-c3cc4ccccc4o3)n2n1)C(O)c1cccnc1 (stereo not shown) = 7.96

Let us move to another entry and its pIC50.
Record request: pIC50 value, item O=C(CCC1CC1)Nc1ccc2ncc(-c3cc4ccccc4o3)n2n1
7.64

---

# study-system: human full-lengt MKNK1 (GST fusion, T344D) (Homo sapiens (Human), UniProt Q9BUB5, T344D)
# assay-text: MKNK1 kinase assay (TR-FRET, 10 μM ATP)
# run-conditions: 15 min preincubation
IC50 listing for selected compounds.
A number alone suffices; assume nM.

For orientation, consider the following solved cases.
O=C(Cc1ccccn1)Nc1ccc2ncc(-c3cc4ccccc4o3)n2n1 [Example 6] = 7
COc1nccc2oc(-c3cnc4ccc(NC(=O)[C@H](C)O)nn34)cc12 [Example 16] = 10
N#Cc1cccc(CC(=O)Nc2ccc3ncc(-c4cc5ccccc5o4)n3n2)c1 [Example 21] = 14
O=C(CCC1CC1)Nc1ccc2ncc(-c3cc4ccccc4o3)n2n1 [Example 22] = 13
O=C(Nc1ccc2ncc(-c3cc4ccccc4o3)n2n1)C(O)C1CCCCC1 (centres unmarked) [Example 4] = 7
CCN(CC)CCC(=O)Nc1ccc2ncc(-c3cc4ccccc4o3)n2n1 [Example 23] = 9
O=C(Nc1ccc2ncc(-c3cc4ccccc4o3)n2n1)C(O)c1ccccc1 (centres unmarked) [Example 2] = 7

# evaluate next
Fill blank: measured IC50 of the compound O=C(Cc1ccccc1)Nc1ccc2ncc(-c3cc4ccccc4o3)n2n1 [Example 1] is ____.
8
